# System: Escherichia coli TOP10;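 also: peptides expressed intracellularly from a pBAD plasmid library in pooled LB shake-flask culture, induced with 0.3% L-arabinose, DNA abundance read by NGS, three biological replicates, DESeq2 with apeglm shrinkage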
# EXPERIMENT DESCRIPTION: shrunken log2 fold change of peptide-encoding DNA abundance (4.5 h post-induction vs induction); higher = less antimicrobial activity (less host growth inhibition)
# APPLIED CONDITIONS: time post-induction: 4.5 h; library: site-saturation at positions 5, 18, 19, 20
Assign Criterion met to entries whose shrunken log2 fold change meets or exceeds -0.1; assign Criterion not met to the rest.

Please tell me: is the sequence RRIRMRPPRLPRPRPRPKTYPRP at or over -0.1 in terms of shrunken log2 fold change? Criterion met

Determine whether this sequence has shrunken log2 fold change no lower than -0.1: RRIRARPPRLPRPRPRPSCVPRP Criterion met

Threshold query (shrunken log2 fold change >= -0.1) on RRIRDRPPRLPRPRPRPCVKPRP Criterion not met

Please check the record RRIRWRPPRLPRPRPRPAVCPRP and state if its shrunken log2 fold change is at or above -0.1. Criterion met

Textbook exercise: given the entry RRIRPRPPRLPRPRPRPMAEPRP , state whether its shrunken log2 fold change is greater than or equal to -0.1. Criterion met

Say whether RRIRFRPPRLPRPRPRPFNTPRP shows shrunken log2 fold change of -0.1 or more. Criterion not met

Item RRIRVRPPRLPRPRPRPEGAPRP with shrunken log2 fold change of -0.1 or above? Criterion met

# check: shrunken log2 fold change of RRIRCRPPRLPRPRPRPCHTPRP is greater than or equal to -0.1 Criterion met

Form field: shrunken log2 fold change at least -0.1? Entry: RRIRFRPPRLPRPRPRPMVSPRP Criterion not met

Does the reported shrunken log2 fold change for RRIRCRPPRLPRPRPRPSVAPRP fall at or above the -0.1 mark? Criterion not met

Evaluate RRIRLRPPRLPRPRPRPHTMPRP : shrunken log2 fold change at minimum -0.1? Criterion not met

Is it the case that RRIRYRPPRLPRPRPRPQAKPRP has shrunken log2 fold change reaching or exceeding -0.1? Criterion met

Could you tell me if the measured shrunken log2 fold change of RRIRQRPPRLPRPRPRPEPGPRP reaches -0.1 or more? Criterion met

API: above_or_equal(metric=shrunken log2 fold change, cutoff=-0.1) for item RRIRVRPPRLPRPRPRPMQRPRP Criterion met

Assess whether reported shrunken log2 fold change for RRIRMRPPRLPRPRPRPSWTPRP sits at -0.1 or higher. Criterion met

Confirm if shrunken log2 fold change reported for the sequence RRIRQRPPRLPRPRPRPVCDPRP is -0.1 or above. Criterion met

Entry RRIRWRPPRLPRPRPRPNYQPRP : is its shrunken log2 fold change no less than -0.1? Criterion not met

Assess whether reported shrunken log2 fold change for RRIRMRPPRLPRPRPRPTMPPRP sits at -0.1 or higher. Criterion met

Check the entry RRIRYRPPRLPRPRPRPERYPRP : does shrunken log2 fold change equal or exceed -0.1? Criterion met

Determine whether this sequence has shrunken log2 fold change no lower than -0.1: RRIRYRPPRLPRPRPRPAQLPRP Criterion not met

Would you say RRIRYRPPRLPRPRPRPQQYPRP shows shrunken log2 fold change at minimum -0.1? Criterion not met

Entry RRIRYRPPRLPRPRPRPDWHPRP : is its shrunken log2 fold change no less than -0.1? Criterion not met

Is reported shrunken log2 fold change greater than or equal to -0.1 here: RRIRYRPPRLPRPRPRPEPCPRP Criterion met

Please check the record RRIRRRPPRLPRPRPRPVISPRP and state if its shrunken log2 fold change is at or above -0.1. Criterion met

Dear colleague, could you confirm whether RRIRQRPPRLPRPRPRPDQHPRP has shrunken log2 fold change at or above -0.1? Criterion met

Is it the case that RRIRCRPPRLPRPRPRPLVYPRP has shrunken log2 fold change reaching or exceeding -0.1? Criterion not met

Could you tell me if the measured shrunken log2 fold change of RRIRGRPPRLPRPRPRPGHCPRP reaches -0.1 or more? Criterion met

// inclusive: shrunken log2 fold change at least -0.1? input: RRIRRRPPRLPRPRPRPFNGPRP Criterion met

Dear colleague, could you confirm whether RRIRFRPPRLPRPRPRPFCWPRP has shrunken log2 fold change at or above -0.1? Criterion met

API: above_or_equal(metric=shrunken log2 fold change, cutoff=-0.1) for item RRIRVRPPRLPRPRPRPVCPPRP Criterion met

Test whether the sequence RRIRTRPPRLPRPRPRPVYCPRP records shrunken log2 fold change of -0.1 or higher. Criterion not met

Is reported shrunken log2 fold change greater than or equal to -0.1 here: RRIRLRPPRLPRPRPRPEKFPRP Criterion not met
